- Experimental details: clinical
- Experimental parameters: male, human, in vivo, Cmax
Observed property: Cmax

CCCCc1oc2ccc(NS(C)(=O)=O)cc2c1C(=O)c1ccc(OCCCN(CCCC)CCCC)cc1 [dronedarone] : 140 ng/mL

---

- Experimental details: clinical
- Experimental parameters: male, human, in vivo, AUC0-24
Observed property: AUC(0-t) (ng·h/mL)

CCCCc1oc2ccc(NS(C)(=O)=O)cc2c1C(=O)c1ccc(OCCCN(CCCC)CCCC)cc1 : 983
